Exercise: state measured neutralization IC50 for each of the binders provided.
# assayed system: HIV-1 Env of 6535.3 (HIV-1)
# assay procedure: cell-based or functional assay

Input CAP256-VRC26.02 (antibody, V domains shown) VH: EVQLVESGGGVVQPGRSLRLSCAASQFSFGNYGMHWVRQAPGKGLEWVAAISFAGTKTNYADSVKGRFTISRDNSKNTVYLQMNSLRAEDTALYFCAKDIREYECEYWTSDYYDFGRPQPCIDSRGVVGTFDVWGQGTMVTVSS VL: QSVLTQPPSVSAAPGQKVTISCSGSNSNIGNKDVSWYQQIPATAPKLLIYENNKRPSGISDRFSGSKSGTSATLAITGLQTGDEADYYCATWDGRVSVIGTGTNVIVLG . Output neutralization IC50: > 50 µg/mL

Input CAP256-VRC26.05 (antibody, V domains shown) VH: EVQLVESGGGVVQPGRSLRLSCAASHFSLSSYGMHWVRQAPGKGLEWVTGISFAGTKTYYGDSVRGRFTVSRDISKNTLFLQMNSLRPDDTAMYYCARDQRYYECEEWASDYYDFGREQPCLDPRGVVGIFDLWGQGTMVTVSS VL: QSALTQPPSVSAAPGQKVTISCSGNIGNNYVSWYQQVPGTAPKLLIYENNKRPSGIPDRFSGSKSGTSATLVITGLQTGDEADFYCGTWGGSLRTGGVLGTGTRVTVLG . Output neutralization IC50: > 50 µg/mL

Input CAP256-VRC26.03 (antibody, V domains shown) VH: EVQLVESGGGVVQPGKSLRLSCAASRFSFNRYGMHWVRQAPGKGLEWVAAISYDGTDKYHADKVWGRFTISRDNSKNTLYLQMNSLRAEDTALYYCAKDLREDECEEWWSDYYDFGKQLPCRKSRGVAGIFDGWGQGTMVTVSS VL: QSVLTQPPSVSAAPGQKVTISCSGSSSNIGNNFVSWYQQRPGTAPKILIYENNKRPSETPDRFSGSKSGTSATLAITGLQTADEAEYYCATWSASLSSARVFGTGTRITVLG . Output neutralization IC50: > 50 µg/mL
